Values compiled from the supplement of paper PMC10201428.

Tested on: VchCAST RNA-guided transposition machinery (E. coli BL21(DE3) host, lacZ target)
Experiment: relative integration efficiency (T-RL orientation) vs wild-type transposon end (log2 (normalized fold change)); transposon end mutated: right end (5 bp flank + 75 bp right end); higher = more efficient transposition
observation.type: relative integration efficiency (log2)

Observe how each entry below is paired with its result.
{"columns": ["sequence.text", "relative integration efficiency (log2)"],
 "data": [
  ["ACATTTGTTGATACAACCATAAAATGATAATTACACCCATAAATTGATAATTATCACACCCATAAATTGATATTGCCAACCATAAAATGATAATTACTCTGATCATAGTCAGACCAAGCACCGACAC", -1.11],
  ["ACATTTGTTGATACAACCATCAAATGGTAATTCCACCCATACATTGATAATTATCACACCCAATTTAACTATAACGCTCTGATCATAGTCAGACCAACATTGCTACGACCCGTATTCGCACCGACAC", -4.83],
  ["ACATTTGTTGATACAACCATAAAATGATAATTACACCCATAAATTGATAATTATCACACCCATAAATTGATATTGCCTCTGATCATAGTCAGACCAACATTTGTGAGCGGATAACAAGCACCGACAC", -0.379],
  ["ACATTGGTTCATACAACCATAAAATGATAATTACACCCATAAATTGATAATTATCACACCCAATTTAACTATAACGCTCTGATCATAGTCAGACCAACATTGCTACGACCCGTATTCGCACCGACAC", -7.42]
]}

What value of relative integration efficiency (log2) has been reported for the following sequence? ACATTTGTTGATACAACCATAAAATGATAATTACACCCATAACGGTCGCCGGCGACACAAACGCCCGGTCGCGGTAAGAGGATCATAGTCAGACCAACATTGCTACGACCCGTATTCGCACCGACAC
-2.35
